This listing pairs molecules with measured melting point.

# molecule, metricName, result
records = [
    ("CCCc1c(OCCCCCCCCCCC(=O)O)ccc(C(C)=O)c1O", "melting point", "57 to 58 °C"),
    ("CCOc1ccc2c(c1)C(Cl)(c1ccccc1Cl)C(=O)N2 (stereo not given)", "melting point", "128 to 132 °C"),
]

Prompt line: So what's the measured melting point for this one? CC(C)(C)c1cc(C=O)c(O)c(Br)c1Cl
Response line: 92 to 94 °C

Prompt line: So what's the measured melting point for this one? CCc1cc(CC)c(-c2c(OCS(C)(=O)=O)c(C)nn(C)c2=O)c(CC)c1
Response line: 142 to 143 °C

Prompt line: So what's the measured melting point for this one? COCCNC(=O)CC1CN=C(c2cc3cc(Oc4ccc(S(C)(=O)=O)nc4)ccc3[nH]2)S1 (stereo not given)
Response line: 155 to 156 °C

---

metricName: melting point

Recorded melting point, per entry:
# compound, melting point
data = [
    ("CNS(=O)(=O)c1ccc(Nc2nc(-c3ccccc3)cc(N3CCC(O)CC3)n2)cc1", "280 to 285 °C"),
    ("COc1ccc(C(=O)Nc2ccccc2NC(=O)c2ccc(OC)c(OC)c2)cc1OC", "191 to 192 °C"),
    ("Nc1ccc(NCCNS(=O)(=O)c2ccccc2)cc1", "144 °C"),
    ("CCOC(=O)N1CCN(CCNc2ncnc3c2sc2nc(N(C)C)c4c(c23)CC(C)(C)CC4)CC1", "138 to 140 °C"),
    ("O=C(/C=C/c1ccccc1F)N1CCN(C(=O)c2cc(C(F)(F)F)cc(C(F)(F)F)c2)[C@H](Cc2c[nH]c3ccccc23)C1", "110 to 114 °C"),
]

Prompt line: So what's the measured melting point for this one? FC(F)(F)Sc1cc(C(F)(F)F)[nH]c1-c1ccc(Cl)cc1
Response line: 53 to 55 °C

Prompt line: So what's the measured melting point for this one? CC(Br)c1ccc(-c2nc3ccccc3o2)cc1 (stereo not given)
Response line: 128 to 131 °C

Prompt line: So what's the measured melting point for this one? CCOCS(=O)(=O)c1ccc(C(CC2CCCC2)C(=O)Nc2nc3ccc(OC)nc3s2)cc1 (stereo not given)
Response line: 158 to 160 °C

Prompt line: So what's the measured melting point for this one? COCC1COc2cc3ncnc(Nc4cc(Cl)cc(Cl)c4)c3cc2O1 (stereo not given)
Response line: 269 to 274 °C

Prompt line: So what's the measured melting point for this one? Cc1cccc(N2CC(C)C(N)=N2)n1 (stereo not given)
Response line: 181 to 185 °C

---

This listing pairs compounds with measured melting point.

Recorded melting point, per entry:
# compound, result
rows = [
    ("Cc1ccc2c(c1)Oc1ncc(N)cc1C(=O)N2C", "191 to 193 °C"),
    ("COc1cc(CCCOc2c(CC(=O)O)cccc2OC)n(Cc2ccc(Cl)cc2Cl)n1", "111 to 112 °C"),
    ("CCOC(=O)/C=C/c1ccc(C2COc3c(C)c(C)c(NC(=O)CC(C)(C)C)c(C)c32)cc1 (stereo not given)", "176 to 177 °C"),
    ("CC(C)CC1=CC(c2ccccc2)C2=C(CCCC2=O)N1 (stereo not given)", "182 to 184 °C"),
    ("CCN(C(=O)n1nnc2cc(C)ccc21)c1ccccc1", "42 to 43 °C"),
]

Prompt line: So what's the measured melting point for this one? CC(C)(C)OC(=O)N[C@H]1CC[C@H](CCOS(C)(=O)=O)CC1
Response line: 116 °C

Prompt line: So what's the measured melting point for this one? CC(C)=C1C(=O)N(c2ccc(N)cc2)C(=O)/C1=C(\C)c1cc(-c2ccccc2)sc1C
Response line: 193 to 195 °C

Prompt line: So what's the measured melting point for this one? CCCc1nnc(/C=C/c2cn(Cc3ccccc3)nc2OCc2ccc(OCc3nc(-c4ccco4)oc3C)c(OC)c2)o1
Response line: 146 to 147 °C

---

metricName: melting point

Recorded melting point, per entry:
# compound, result
measured = [
    ("Nc1nc(CCCc2ccccc2)nc2nc(-c3ccco3)nn12", "164 to 167 °C"),
    ("O=C(NCC(C=C1CCCCC1[N+](=O)[O-])=NO)c1cccnc1 (stereo not given)", "149 to 151 °C"),
    ("CN1Cc2c(Cl)ncn2-c2ccccc2C1=O", "193 to 194 °C"),
]

Prompt line: So what's the measured melting point for this one? Cc1ccc(C(=O)CCCCCBr)cc1C
Response line: 61 to 63 °C

Prompt line: So what's the measured melting point for this one? Clc1ccc(OCc2ccc3ccccc3n2)cc1Cl
Response line: 80.5 to 82 °C

Prompt line: So what's the measured melting point for this one? CC(=O)N1CC(=O)NC(=Cc2ccc(OCc3ccccc3)cn2)C1=O
Response line: 189 to 191 °C

Prompt line: So what's the measured melting point for this one? CCN(CC)CCN1CCN(c2ccc(N3C[C@H](CNC(C)=O)OC3=O)cc2F)CC1
Response line: 131 to 133 °C

Prompt line: So what's the measured melting point for this one? O=C(CCCCCN1CCN(c2cccc(C(F)(F)F)c2)CC1)N1Cc2ccc(OCCN3CCCCC3)cc2C1
Response line: 88 °C

Prompt line: So what's the measured melting point for this one? CC(C)COC(c1cc(Cl)cc([N+](=O)[O-])c1O)c1cc(Cl)cc([N+](=O)[O-])c1O
Response line: 95 °C

---

metricName: melting point

# compound, melting point
rows = [
    ("O=[N+]([O-])c1ccc(NS(=O)(=O)c2cccc3ccccc23)cc1", "210 to 215 °C"),
    ("COC(=O)c1cc([N+](=O)[O-])c(F)cc1F", "78 to 80 °C"),
]

Prompt line: So what's the measured melting point for this one? CC12C=CC(C)(CC(=O)C1)O2
Response line: 62 to 63 °C

Prompt line: So what's the measured melting point for this one? COc1ccc2c(c1)-c1c([nH]c3c1-c1cc(OC)ccc1CC3)CC2
Response line: 206 °C

Prompt line: So what's the measured melting point for this one? Cc1ccc(Oc2ccc(-n3cc(C(=O)O)nn3)cc2)c(O)c1
Response line: 159 to 161 °C

Prompt line: So what's the measured melting point for this one? OCc1ncc2n1CCC2
Response line: 110 to 120 °C

Prompt line: So what's the measured melting point for this one? O=C1c2cc(O)ccc2OCC1Cc1cccnc1 (configuration not stated)
Response line: 163 to 166 °C

Prompt line: So what's the measured melting point for this one? Cn1c(=O)[nH]c2nc3ccc(OCCCC(=O)NC4CCCCC4)cc3cc21
Response line: 282 to 284 °C

Prompt line: So what's the measured melting point for this one? NC(=O)CCC(=O)NCCS
Response line: 173 °C

Prompt line: So what's the measured melting point for this one? CC(C)c1cccc(C(C)C)c1NC(=O)C(C)(C)CCCOc1ccc2c(c1)C=C(c1nccn1C)C(CCc1ccccc1)O2 (racemic)
Response line: 108 to 110 °C

Prompt line: So what's the measured melting point for this one? O=C(O)c1ccccc1OCCN1CCC(c2cn(CCC3COCCO3)c3ccccc23)CC1 (configuration not stated)
Response line: 139 to 140 °C

---

metricName: melting point

# compound, melting point
records = [
    ("O=C(Nc1ccc(Cl)nc1)c1ccc(-n2ccnc2)c(F)c1", "210 to 211 °C"),
    ("OC(CNC1CC1)c1cccc(Br)c1 (stereo not given)", "69.5 to 70.4 °C"),
    ("Cc1cn(CC(O)(CC(C)(C)c2cccc3c2OCC3)C(F)(F)F)c(CO)c(C)c1=O (stereo not given)", "160 to 162 °C"),
    ("O=C(O)CCCc1ccccc1CC1C(=O)CC(=O)C1=O (stereo not given)", "123 °C"),
    ("O=C(CC(=O)OCc1ccc([N+](=O)[O-])cc1)CC1CC(=O)N1 (stereo not given)", "50 to 52 °C"),
    ("Cc1ccc2onc(O)c2c1", "95 to 97 °C"),
    ("COc1ccc(Cl)cc1C1(F)C(=O)Nc2ccc(Br)cc21 (stereo not given)", "206 to 208 °C"),
    ("O=CC(Cc1ccccc1)N1C(=O)c2ccccc2C1=O (stereo not given)", "115 to 117 °C"),
    ("Cc1ccc(-c2nc(CCC(O[Si](C)(C)C(C)(C)C)c3ccc(C=O)s3)c(C)o2)cc1 (stereo not given)", "122 to 124 °C"),
]

Prompt line: So what's the measured melting point for this one? COc1ccc(C(C)C)c(NC(=O)CN2CCN(CCCSc3nc4ccccc4o3)CC2)c1C(C)C
Response line: 105 to 107 °C

---

This listing pairs compounds with measured melting point.

Recorded melting point, per entry:
# compound, melting point
rows = [
    ("CSc1nc(-c2ccc(Cl)cc2)c(CCC(=O)O)o1", "183 to 184 °C"),
    ("O=C(O)Cc1ccc(CCNC(=O)C2Cc3ccccc3N2S(=O)(=O)c2ccc(-c3cccc(C(F)(F)F)c3)cc2)cc1 (configuration not stated)", "110 °C"),
    ("C[C@@H](n1cnc2cc(N3CCN(c4ccc(Cl)cc4)CC3)c(F)cc2c1=O)[C@](O)(Cn1cncn1)c1ccc(F)cc1F", "130 to 133 °C"),
]

Continue with the compound presented below.
Prompt line: So what's the measured melting point for this one? CC1(C)CC(=O)c2c(Oc3ccccc3)sc(-c3cc[nH]n3)c2C1
Response line: 232 to 234 °C
